Examples of compounds with documented log10 of EC50 follow.
Test Description: Inhibition of capsid in HBV infected in human HepG.2.2.15 cells assessed as reduction of HBV DNA incubated for 5 days by quantitative PCR analysis
Values below are the log10 of the recorded EC50, with nM as the unit.

Please review the following examples before continuing.
• CCOC(=O)C1=C(CN2CCOC[C@H]2C(=O)O)NC(c2nccs2)=N[C@H]1c1ccc(Br)c(F)c1 = 0.48
• COC(=O)C1=C(CN2CCOC[C@H]2C(=O)O)NC(c2nccs2)=N[C@H]1c1ccc(C)c(F)c1 = 1.45
• COC(=O)C1=C(CN2CCOC[C@H]2C(=O)O)NC(c2nccs2)=N[C@H]1c1ccc(Cl)c(F)c1 = 1.00
• CCOC(=O)C1=C(CN2CCOC[C@H]2C(=O)O)NC(c2nccs2)=N[C@H]1c1ccc(F)c(F)c1 = 1.04
• COC(=O)C1=C(CN2CCOC[C@H]2C(=O)O)NC(c2nccs2)=N[C@H]1c1ccc(F)c(F)c1 = 1.66

Quick check: log10 of EC50 of `CCOC(=O)C1=C(CN2CCOC[C@H]2C(=O)O)NC(c2nccs2)=N[C@H]1c1ccc(F)cc1Cl` ?
0.30

----------
Study System: Capsid protein (Hepatitis B virus, UniProt Q03732)
Sequence (Q03732 whole entry): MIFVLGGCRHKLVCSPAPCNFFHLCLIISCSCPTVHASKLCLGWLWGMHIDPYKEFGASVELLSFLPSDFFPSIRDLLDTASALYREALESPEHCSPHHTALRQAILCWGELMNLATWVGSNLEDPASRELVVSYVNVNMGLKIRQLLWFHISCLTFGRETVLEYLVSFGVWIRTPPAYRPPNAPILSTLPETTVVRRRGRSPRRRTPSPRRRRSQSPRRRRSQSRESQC
Test Description: Inhibition of capsid in HBV infected in human HepG.2.2.15 cells assessed as reduction of HBV DNA incubated for 5 days by quantitative PCR analysis
Measured Endpoint: EC50 (nM)
Could you give me the number in nM? Just the number is fine.

* COC(=O)C1=C(CN2CCOC[C@H]2C(=O)O)NC(c2nccs2)=N[C@H]1c1ccc(Br)c(F)c1 | 10
* CCOC(=O)C1=C(CN2CCOC[C@H]2C(=O)O)NC(c2nccs2)=N[C@H]1c1ccc(C)c(F)c1 | 5
* CCOC(=O)C1=C(CN2CCOC[C@H]2C(=O)O)NC(c2nccs2)=N[C@H]1c1ccc(F)cc1 | 15

Recorded EC50 for `CCOC(=O)C1=C(CN2CC(F)(F)C[C@H]2C(=O)O)NC(c2nccs2)=N[C@H]1c1ccc(F)cc1Cl` with Capsid protein (Hepatitis B virus, UniProt Q03732), please?
10

Ok, now `CCOC(=O)C1=C(CN2CCOC[C@H]2C(=O)O)NC(c2nccs2)=N[C@H]1c1ccc(F)c(F)c1F`
5

Next compound up: `COC(=O)C1=C(CN2CC(F)(F)C[C@H]2C(=O)O)NC(c2nccs2)=N[C@H]1c1ccc(F)cc1Cl`
3

Ok, now `CCOC(=O)C1=C(CN2CCOC[C@H]2C(=O)O)NC(c2nccs2)=N[C@H]1c1cccc(F)c1`
15

How about this compound: `CCOC(=O)C1=C(CN2CCOC[C@H]2C(=O)O)NC(c2nccs2)=N[C@H]1c1cc(F)c(F)c(F)c1`
18

----------
Study System: Capsid protein (Hepatitis B virus)
Test Description: Inhibition of capsid in HBV infected in human HepG.2.2.15 cells assessed as reduction of HBV DNA incubated for 5 days by quantitative PCR analysis
Measured Endpoint: pEC50
Value format note: pEC50 is -log10 of concentration (mol/L); just state the number.

Study these solved cases before continuing.
• CCOC(=O)C1=C(CN2CCOC[C@H]2C(=O)O)NC(c2nccs2)=N[C@H]1c1ccc(Cl)c(F)c1 = 8.70
• COC(=O)C1=C(CN2CC(F)(F)C[C@H]2C(=O)O)NC(c2nccs2)=N[C@H]1c1ccc(F)c(F)c1 = 7.66

The record that follows has no pEC50 shown yet.
Hello, I am looking for reported pEC50 with Capsid protein (Hepatitis B virus) for `CCOC(=O)C1=C(CN2CCOC[C@H]2C(=O)O)NC(c2nccs2)=N[C@H]1c1ccc(F)cc1F` . Could you help?
7.85

----------
Test Description: Inhibition of capsid in HBV infected in human HepG.2.2.15 cells assessed as reduction of HBV DNA incubated for 5 days by quantitative PCR analysis
pEC50: −log10 of the molar value.
Measured Endpoint: pEC50

* CCOC(=O)C1=C(CN2CCOC[C@H]2C(=O)O)NC(c2nccs2)=N[C@H]1c1ccc(F)c(C#N)c1 | < 6.00
* CCOC(=O)C1=C(CN2CCOC[C@H]2C(=O)O)NC(c2nccs2)=N[C@H]1c1ccc(F)c(Br)c1 | < 6.00

# input compound: `CCOC(=O)C1=C(CN2CCOC[C@H]2C(=O)O)NC(c2nccs2)=N[C@H]1c1ccc(F)c(Cl)c1` ; wanted: its pEC50
< 6.00
